Tested on: Candida albicans
Experiment: Antifungal activity against Candida albicans MTCC 227 after overnight incubation by broth microdilution method
Format: functional
Each entry below lists one item and its recorded MIC99 value.
Value expressed in µg/mL; do not type the unit.

Some solved entries appear below for comparison.
COMPOUND: Cc1ccc(O)c(C(=O)c2ccc(-c3cc4ccccc4oc3=O)nc2)c1
OBSERVED VALUE: 250
--
COMPOUND: O=C(c1ccc(-c2cc3c(ccc4ccccc43)oc2=O)nc1)c1cc(Cl)ccc1O
OBSERVED VALUE: 1000
--
COMPOUND: O=C(c1ccc(-c2cc3c(ccc4ccccc43)oc2=O)nc1)c1ccccc1O
OBSERVED VALUE: 250

Enquiry: Form field - read-out: MIC99; system: Candida albicans; submitted item: Cc1ccc(O)c(C(=O)c2ccc(-c3cc4c(ccc5ccccc54)oc3=O)nc2)c1
Return: 500

Enquiry: Form field - read-out: MIC99; system: Candida albicans; submitted item: O=C(c1ccc(-c2cc3cc(Br)ccc3oc2=O)nc1)c1ccccc1O
Return: 200
